FYI, the data here is from paper PMC4710095.

Target: UniProtKB Q8WS26
Experiment: Isothermal titration calorimetry of bisphosphonate binding to TcFPPS
Settings: ITC, 28 °C, single binding site per monomer
attribute-measured: ΔH (kcal/mol)

>>> reported("CCCCCNCC(P(=O)(O)O)P(=O)(O)O")
5.22
>>> reported("CCCCCCCNCC(P(=O)(O)O)P(=O)(O)O")
5.65
>>> reported("CCCCCCNCC(P(=O)(O)O)P(=O)(O)O")
7.87
>>> reported("CCCNCC(P(=O)(O)O)P(=O)(O)O")
6.35

---

Molecular target: TcFPPS (Trypanosoma cruzi farnesyl diphosphate synthase) (Trypanosoma cruzi, UniProt Q8WS26)
Sequence (Q8WS26 64-425): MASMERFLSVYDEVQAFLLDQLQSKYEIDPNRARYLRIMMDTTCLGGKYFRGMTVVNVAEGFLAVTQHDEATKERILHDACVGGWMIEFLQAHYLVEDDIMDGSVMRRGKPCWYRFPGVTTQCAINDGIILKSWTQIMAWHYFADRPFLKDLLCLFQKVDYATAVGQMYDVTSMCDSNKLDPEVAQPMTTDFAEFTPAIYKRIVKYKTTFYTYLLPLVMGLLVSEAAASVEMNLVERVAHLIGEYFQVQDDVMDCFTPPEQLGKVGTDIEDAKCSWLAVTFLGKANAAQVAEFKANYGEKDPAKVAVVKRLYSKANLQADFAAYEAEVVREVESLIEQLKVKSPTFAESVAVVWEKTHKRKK
Experiment: Isothermal titration calorimetry of bisphosphonate binding to TcFPPS
Conditions: ITC, 28 °C, single binding site per monomer
attribute-measured: ΔG (kcal/mol)

>>> reported("CCCCCNCC(P(=O)(O)O)P(=O)(O)O")
-8.15
>>> reported("CCCNCC(P(=O)(O)O)P(=O)(O)O")
-10.43
>>> reported("CCCCCCCNCC(P(=O)(O)O)P(=O)(O)O")
-9.88
>>> reported("CCCCCCNCC(P(=O)(O)O)P(=O)(O)O")
-8.72
